Hello, the source for this data is patent US20250073177A1, in case you need it.

assay: Body weight of mice after injection of LNP-formulated luciferase saRNA; type: in vivo; settings: Day 1, intramuscular, 1 μg luciferase saRNA in LNP
Here the recorded Weight is given for each entry.

[
  {
    "Compound": "CCCCCCC(CCCC)C(=O)OCCCCN(CCCCOC(=O)C(CCCC)CCCCCC)CCN1CCN(CCOC(=O)C(CCCC)CCCCCC)CC1 (stereo not shown) [Compound 8-41]",
    "Weight": "27.31 g"
  },
  {
    "Compound": "CCCCCCCCCCCCCCOC(=O)CCN(CCC(=O)OCCCCCCCCCCCCCC)CCN1CCN(CCN(CCC(=O)OCCCCCCCCCCCCCC)CCC(=O)OCCCCCCCCCCCCCC)CC1 [Comparator 1, reference compound]",
    "Weight": "25.99 g"
  },
  {
    "Compound": "CCCCCCC(CCCC)C(=O)NCCN1CCN(CCN(CCCCOC(=O)C(CCCC)CCCCCC)CCCCOC(=O)C(CCCC)CCCCCC)CC1 (stereo not shown) [Compound 8-27]",
    "Weight": "26.01 g"
  },
  {
    "Compound": "CCCCCCCCCCC(O)CN(CCN1CCN(CCN(CC(O)CCCCCCCCCC)CC(O)CCCCCCCCCC)CC1)CCN(CC(O)CCCCCCCCCC)CC(O)CCCCCCCCCC (stereo not shown) [Compound C12-200, reference compound]",
    "Weight": "27.17 g"
  }
]
